The measurements presented in this section are drawn from ChEMBL document CHEMBL4513216.

Test system: Plasmodium falciparum
assay.text: Screen against P. falciparum Asexual Blood Stage (ABS), at 5uM
Format: functional, Dd2
measurement.conditions: tested at 5 uM
Among all 65,000 compounds or so, about 2,100 (3.2%) showed an effect of 50% or more. The median lay at about -52%. Only a selection was taken, and strong results are over-represented in it overall.
readout: INHIBITION (%)
Give just the number in %; leave the unit off.

Recorded INHIBITION, per entry:
CCOCC1CN(C(=O)c2cccn2C)Cc2cnn(CC3CC3)c21 (stereo not drawn); 57.8
CSCC(C)N(C)C(=O)c1nn(-c2ccc(F)cc2C)cc1O (stereo not drawn); -118

Consider now this further molecule.
Name the recorded INHIBITION of the molecule listed here: Cc1ccc(C(=O)N2CCCC(c3cc(C(F)(F)F)[nH]n3)C2)o1 (stereo not drawn)
-50.8

====

System: Plasmodium falciparum
assay.text: Screen against P. falciparum Asexual Blood Stage (ABS), at 5uM
Assay type: functional, Dd2
measurement.conditions: tested at 5 uM
Among all 65,000 compounds or so, about 2,100 (3.2%) showed an effect of 50% or more. The median lay at about -52%. This is one part of a sample in which strong results are shown more often than they occur.
Parameter INHIBITION: see the listing below.
Give just the number in %; leave the unit off.

Cc1ccc(CN2CCOC3(CCCN(c4cccc(F)c4)C3)C2)o1 (configuration not stated); 51.6

Name the recorded INHIBITION of the molecule listed here: Cc1ccccc1C(C)N(C)Cc1nc2c(cnn2C)c(=O)[nH]1 (configuration not stated)
-198

Name the recorded INHIBITION of the molecule listed here: Cc1ccc(C(C)N(C)Cc2nc3c(cnn3C)c(=O)[nH]2)cc1 (configuration not stated)
-137

Name the recorded INHIBITION of the molecule listed here: COc1cccc(CC(=O)N2CCC3(CC2)OCCCC3O)c1OC (configuration not stated)
-112

Name the recorded INHIBITION of the molecule listed here: c1cnc(N2CC3(CCN(C4CCOC4)CC3)c3ccccc32)nc1 (configuration not stated)
-101

Name the recorded INHIBITION of the molecule listed here: CC(C)N(Cc1ccc(C(=O)O)o1)C(C)C
-21.6

Name the recorded INHIBITION of the molecule listed here: O=C(c1ccncc1)N1CCC2(CC1)CCN(C(=O)c1cccnc1)C2
-57.2

====

Test system: Plasmodium falciparum
assay.text: Screen against P. falciparum Asexual Blood Stage (ABS), at 5uM
Assay type: functional, Dd2
measurement.conditions: tested at 5 uM
The whole screen tested about 65,000 compounds, of which about 2,100 (3.2%) showed an effect of 50% or more. The median lay at about -52%. What follows is part of a selection rich in strong results, with near analogues and random picks from the rest.
Parameter INHIBITION: see the listing below.
Number first, unit second.

Recorded INHIBITION, per entry:
CC1(C(=O)NCc2cccnc2Oc2ccc(F)cc2F)CCCNC1 (stereo unspecified); 21.1%
COc1cc(CNCCc2cnn(C)c2)cc2c1OCCO2; -7.17%
CCOc1nn(CC)cc1-c1nnc(SCc2ccccn2)n1C; -121%
O=C(c1ccc[nH]1)N1C[C@H](OCc2ccccn2)[C@H]2COC[C@H]21; -89.2%

Name the recorded INHIBITION of the compound listed here: CC(C)N1CCC(C(=O)N2CCCN(c3ccccc3)CC2)CC1
-38.1%

Name the recorded INHIBITION of the compound listed here: COCC(=O)N1C[C@@H](CN2CCCN(C)CC2)[C@@H](CO)C1
-37.6%
